Please go through the items and note down their sodium chloride concentration up to which DNA condensates are stable.
measurement.description: Shear stress stability (salt sonication assay), Example 6
Format: physicochemical
test.settings: 30 sec sonication; highest tested 2.5 M
Where no end group is shown, it is not given here. The star is where a group is joined. Carboxymethyl = O=C(O)C*
Answers are plain numbers, in M.

> print(dat)
                                  substance  recorded.value
1  Cys-Trp-Lys17-Cys (CWKKKKKKKKKKKKKKKKKC) [Peptide II]               1
2  Cys-(Lys)2-Cys-(Lys)2-Cys (CKKCKKC) [Peptide 9]             1.5
3  Alk-S-Cys-Trp-Lys18 (C(Carboxymethyl)WKKKKKKKKKKKKKKKKKK) [AlkCWK18]             0.4
4  Cys-(Lys)3-Cys-(Lys)3-Cys (CKKKCKKKC) [Peptide 10]             2.5

Field: next substance
# return recorded sodium chloride concentration up to which DNA condensates are stable for input Cys-(Lys)4-Cys-(Lys)4-Cys (CKKKKCKKKKC) [Peptide 11]
2.5

###

measurement.description: QELS particle size and zeta potential of cross-linking peptide DNA condensates, Example 5
Type: physicochemical
test.settings: HBM with added saline (0.15 M) after 15 min
Bridges are numbered along the chain shown (N, C = ends). Where no end group is shown, it is not given here. The star is where a group is joined. Carboxymethyl = O=C(O)C*
measured.property: Particle Size Mean Diameter, Saline (nm)
One number for each entry, in nm.

substance	measured.property	recorded.value
Lys18-Trp-Cys-S-S-Cys-Trp-Lys18 (KKKKKKKKKKKKKKKKKKWCCWKKKKKKKKKKKKKKKKKK; disulfide 20-21; also: disulfide-linked dimer of two CWK18 chains, no peptide bond between positions 20 and 21) [DiCWK18]	Particle Size Mean Diameter, Saline	171
Cys-Trp-Lys17-Cys (CWKKKKKKKKKKKKKKKKKC) [Peptide II]	Particle Size Mean Diameter, Saline	257
Cys-Trp-Lys8-Cys-Lys8-Cys (CWKKKKKKKKCKKKKKKKKC) [III]	Particle Size Mean Diameter, Saline	157

Field: next substance
# return recorded Particle Size Mean Diameter, Saline for input Alk-S-Cys-Trp-Lys18 (C(Carboxymethyl)WKKKKKKKKKKKKKKKKKK) [AlkCWK18]
1215

###

measurement.description: QELS particle size and zeta potential of peptide DNA condensates, Example 6
Type: physicochemical
test.settings: charge ratio 4:1, 50 μg/ml DNA in HBM; average and SD of ten
Where no end group is shown, it is not given here. The star is where a group is joined. Carboxymethyl = O=C(O)C*
Please go through the items and note down their Zeta Potential (mV).
Give bare numbers, in mV.

> print(dat)
                                  substance  recorded.value
1  Cys-(Lys)4-His-(Lys)3-Cys (CKKKKHKKKC) [Peptide 12]              30
2  Cys-(Lys)4-Cys-(Lys)4-Cys (CKKKKCKKKKC) [Peptide 11]              31
3  Cys-His-Lys-His-Lys-(His)2-Lys-His-Cys (CHKHKHHKHC) [Peptide 16]              23
4     Cys-(Lys)6-Cys (CKKKKKKC) [Peptide 6]              37

Each substance below has a reported value. Please supply its Zeta Potential (mV).
1. Cys-Trp-Lys17-Cys (CWKKKKKKKKKKKKKKKKKC) [Peptide II]
2. Cys-His-(Lys)6-His-Cys (CHKKKKKKHC) [Peptide 13]
3. Cys-(Lys)3-Cys-(Lys)3-Cys (CKKKCKKKC) [Peptide 10]
4. Cys-(Lys)8-Cys (CKKKKKKKKC) [Peptide 7]
5. Alk-S-Cys-Trp-Lys18 (C(Carboxymethyl)WKKKKKKKKKKKKKKKKKK) [AlkCWK18]
6. Cys-(His-Lys)4-Cys (CHKHKHKHKC) [Peptide 15]
7. Cys-His-(Lys)3-His-(Lys)2-His-Cys (CHKKKHKKHC) [Peptide 14]

1. 28
2. 31
3. 34
4. 26
5. 26
6. 23
7. 20
